# Tested on: Plasmodium berghei
# protocol-text: Screen against P. berghei liver stage (PbLuc), transformed with Luciferase, at 10uM
# Assay type: functional, HepG2
# stated-conditions: tested at 10 uM
Among all 69,000 compounds or so, about 8,600 (12%) showed an effect of 50% or more. For the sample, strong results were picked, then their nearest neighbours and some compounds at random.
Below: a set of entries, each annotated with reported INHIBITION.
quantity-measured: INHIBITION (%)

INSERT INTO results (molecule, quantity_measured, test_result) VALUES
  ('CC(=O)Nc1nc(C2CCN(C(=O)c3cccnc3)CC2)cs1', 'INHIBITION', 60.8),
  ('Cc1ncccc1NC(=O)C1=NOC2(CCN(Cc3nccs3)C2)C1 (configuration not stated)', 'INHIBITION', 9.1),
  ('Cc1nc(N)c2ccc(C3CCCN3)nc2n1 (configuration not stated)', 'INHIBITION', 26.55),
  ('CC(C)NC(=O)C1CN(C(=O)c2ccccc2)CC12CCOCC2 (configuration not stated)', 'INHIBITION', 29.9),
  ('Cc1ccc(CN2CCc3nnc(CN4CCCC4=O)n3CC2)s1', 'INHIBITION', 37.1),
  ('CCn1ncc2c1CN(C(=O)c1cc(C)oc1C)CC2COC (configuration not stated)', 'INHIBITION', -12.1),
  ('COCC1CN(C(=O)c2ccnnc2)Cc2c1cnn2C (configuration not stated)', 'INHIBITION', 48.3),
  ('Cc1nc(CN2CCO[C@@H]3CN(C(=O)CC4CC4)C[C@@H]3C2)cs1', 'INHIBITION', 9.63),
  ('Cn1nc(CN2CCCC2)c2c1CN(C(=O)c1cccnc1)CC2', 'INHIBITION', -31.3),
  ('O=C(COc1ccc(C(F)(F)F)cc1)N1CCOCC1c1ncon1 (configuration not stated)', 'INHIBITION', 11.9),
  ('CN1CCN([C@@H]2CCN(C3CCOC3)[C@H]2Cc2cnn(C)c2)CC1 (some centres not stated)', 'INHIBITION', 24.9),
  ('Cc1ccoc1C(=O)N1CCCC(c2cc(C(F)(F)F)[nH]n2)C1 (configuration not stated)', 'INHIBITION', 62.6),
  ('O=C(c1ccc(-c2ccc(O)nc2)s1)N1CCSCC1', 'INHIBITION', 3.295),
  ('CNC(=O)C1Cn2ccnc2C2(CCN(Cc3ccncc3)CC2)O1 (configuration not stated)', 'INHIBITION', 36.9),
  ('CN(C)S(=O)(=O)N1CCC(C(O)c2ccc(Cl)cc2)CC1 (configuration not stated)', 'INHIBITION', -9.8),
  ('CC(C)CN1CCC2(CC(C(=O)NCc3cccnc3)=NO2)C1 (configuration not stated)', 'INHIBITION', -11.6),
  ('COc1cc(N2C[C@H]3CN(C(=O)c4cccnc4)C[C@H]3C2)ncn1', 'INHIBITION', 0.164),
  ('CNC(=O)C1=NOC2(CCN(Cc3nccs3)C2)C1 (configuration not stated)', 'INHIBITION', 54.4),
  ('O=C([C@H]1COC[C@H]2CN(C3CCOCC3)C[C@H]21)N1CCCO1', 'INHIBITION', -1.83),
  ('CC(=O)Nc1nc(C2CCN(C(C)C)CC2)cs1', 'INHIBITION', 23.4),
  ('CC(=O)Nc1nc(CN2CCCCC2Cn2cccn2)cs1 (configuration not stated)', 'INHIBITION', -15.8),
  ('Cc1noc(C)c1C(=O)N1CCCC(c2cc(C(F)(F)F)[nH]n2)C1 (configuration not stated)', 'INHIBITION', -27.9);
